# collection of pIC50 values tested on Tyrosine-protein kinase SYK (Homo sapiens)
Units for pIC50: none; it is -log10 of a concentration expressed in mol/L.

Answered examples (4):
>  <MOLECULE>
C[C@@H](Oc1cc(-c2cnn(C(F)F)c2)cc2nscc12)[C@H]1CNC(=O)O1

>  <TARGET_DESC>
Tyrosine-protein kinase SYK (Homo sapiens)

>  <TEST_RESULT>
7.80

$$$$
>  <MOLECULE>
C[C@@H](Oc1cc(-c2cnn(C)c2)cc2ncsc12)[C@H]1CNC(=O)C1

>  <TARGET_DESC>
Tyrosine-protein kinase SYK (Homo sapiens)

>  <TEST_RESULT>
7.48

$$$$
>  <MOLECULE>
C[C@@H](Oc1cc(-c2cnn(C(F)F)c2)cc2nscc12)[C@H]1CNC(=O)C1

>  <TARGET_DESC>
Tyrosine-protein kinase SYK (Homo sapiens)

>  <TEST_RESULT>
7.24

$$$$
>  <MOLECULE>
C[C@@H](Oc1nc(-c2cnn(C)c2)cc2ncsc12)[C@H]1CNC(=O)C1

>  <TARGET_DESC>
Tyrosine-protein kinase SYK (Homo sapiens)

>  <TEST_RESULT>
7.59

$$$$

Let us examine a further case.
Exercise: Jot down pIC50 (Tyrosine-protein kinase SYK (Homo sapiens)) of C[C@@H](Oc1nc(-c2cnn(C)c2)cc2nscc12)[C@H]1CNC(=O)C1 .
Key: 7.40

The origin of these recorded values is ChEMBL document CHEMBL3621151.
